# System: KB
# ASSAY_PROCEDURE: Cytotoxicity against human KB cells
# Assay type: functional, cell-based
Recorded IC50, one value per entry.

Measured IC50, CC(=O)O[C@@H]1[C@H](O)[C@@H](OC(C)=O)/C(C)=C\[C@@H]2OC(=O)[C@@](C)(O)[C@@]2(O)[C@@H](OC(C)=O)[C@H]2[C@](C)(O)[C@H](OC(C)=O)C=C[C@]12C : > 10 µg/mL

---

# Tested on: KB
# ASSAY_PROCEDURE: Cytotoxicity against human KB cells
# Format: functional, cell-based
Each entry below carries its recorded IC50.

Consider the worked cases shown below.
SMILES_CODE	MEASUREMENT_NAME	RESULT
CC(=O)O[C@@H]1C/C(C)=C\[C@@H]2OC(=O)[C@@](C)(O)[C@@]2(O)[C@@H](OC(C)=O)[C@H]2[C@](C)(O)[C@H](O)C=C[C@]2(C)[C@@H]1O	IC50	> 10 µg/mL
CC(=O)O[C@@H]1C/C(C)=C\[C@@H]2OC(=O)[C@]3(C)O[C@]23[C@@H](OC(C)=O)[C@H]2[C@](C)(O)[C@H](OC(C)=O)C=C[C@]2(C)[C@@H]1O	IC50	4.3 µg/mL

Readout IC50 for CC(=O)O[C@@H]1[C@H](O)[C@@H](OC(C)=O)/C(C)=C\[C@@H]2OC(=O)[C@@](C)(O)[C@@]2(O)[C@@H](OC(C)=O)[C@H]2[C@](C)(O)[C@H](O)C=C[C@]12C , test system KB, was > 10 µg/mL
